# credit: the supplement of paper PMC10567573

B1: CFHR2 (parent)
chain: FVENGHSESSGQTHLEGDTVQIIC

Variants of: B1
test-protocol: protein stability index of a GFP-peptide fusion (GPS, HEK-293T) (PSI 1-6); higher = more stable;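 further: lentivirally expressed fusions sorted by FACS into six bins by GFP to DsRed ratio, PSI derived from sequencing read proportions per bin multiplied by bin number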
condition-set: c terminus: a fixed tail appended
Classify by measured protein stability index: satisfied if it is equal to or exceeds 3, not satisfied if it is smaller.

Determine whether measured protein stability index meets or exceeds 3 for FVENGHSESSGQTHYEGDTVQIIC [L15Y]
not satisfied

Determine whether measured protein stability index meets or exceeds 3 for FVEHGHSESSGQTHLEGDTVQIIC [N4H]
not satisfied

Determine whether measured protein stability index meets or exceeds 3 for FVENGHSESSGQTHLEGYTVQIIC [D18Y]
not satisfied

Determine whether measured protein stability index meets or exceeds 3 for FVELGHSESSGQTHLEGDTVQIIC [N4L]
not satisfied

Determine whether measured protein stability index meets or exceeds 3 for FVENGHSESSGQTHLEGDIVQIIC [T19I]
not satisfied

Determine whether measured protein stability index meets or exceeds 3 for FVENGHSESSGQTHLEGDTVRIIC [Q21R]
not satisfied

Determine whether measured protein stability index meets or exceeds 3 for FVENGHSESSGQTHLEGDTVQIPC [I23P]
satisfied

Determine whether measured protein stability index meets or exceeds 3 for FVENGHSESSGQTHLEGDTVQIKC [I23K]
satisfied

Determine whether measured protein stability index meets or exceeds 3 for FMENGHSESSGQTHLEGDTVQIIC [V2M]
satisfied

Determine whether measured protein stability index meets or exceeds 3 for FVHNGHSESSGQTHLEGDTVQIIC [E3H]
not satisfied

Determine whether measured protein stability index meets or exceeds 3 for FVENGHSESSGQTHLEGDTVLIIC [Q21L]
not satisfied

Determine whether measured protein stability index meets or exceeds 3 for FVENGHSYSSGQTHLEGDTVQIIC [E8Y]
not satisfied

Determine whether measured protein stability index meets or exceeds 3 for FVFNGHSESSGQTHLEGDTVQIIC [E3F]
not satisfied

Determine whether measured protein stability index meets or exceeds 3 for FVENGHSESEGQTHLEGDTVQIIC [S10E]
satisfied

Determine whether measured protein stability index meets or exceeds 3 for FVENGHSESSGQTHLEGDTVQIRC [I23R]
not satisfied

Determine whether measured protein stability index meets or exceeds 3 for HVENGHSESSGQTHLEGDTVQIIC [F1H]
satisfied

Determine whether measured protein stability index meets or exceeds 3 for FVENGHSESSGQTHLEGDTVQIMC [I23M]
not satisfied

Determine whether measured protein stability index meets or exceeds 3 for FVENGHSESSGQTHLEGDTVQTIC [I22T]
satisfied

Determine whether measured protein stability index meets or exceeds 3 for FVENGHSESSGQTHLEGETVQIIC [D18E]
not satisfied

Determine whether measured protein stability index meets or exceeds 3 for FVENGHSEFSGQTHLEGDTVQIIC [S9F]
not satisfied

Determine whether measured protein stability index meets or exceeds 3 for FVENGHSESSGQTHLEGDTVQIYC [I23Y]
not satisfied

Determine whether measured protein stability index meets or exceeds 3 for FVENGHSESSGQTHTEGDTVQIIC [L15T]
satisfied

Determine whether measured protein stability index meets or exceeds 3 for FVENGHSESSGTTHLEGDTVQIIC [Q12T]
not satisfied

Determine whether measured protein stability index meets or exceeds 3 for FVENGHSESSGQTHLEGDTVYIIC [Q21Y]
not satisfied

Determine whether measured protein stability index meets or exceeds 3 for FVENGHSESSGQTFLEGDTVQIIC [H14F]
not satisfied

Determine whether measured protein stability index meets or exceeds 3 for FVENGHSESSGQTHLEGDTVQDIC [I22D]
satisfied

Determine whether measured protein stability index meets or exceeds 3 for FVENGHSESHGQTHLEGDTVQIIC [S10H]
not satisfied

Determine whether measured protein stability index meets or exceeds 3 for FVENGHSESSGQTHLEGDTVQIIL [C24L]
not satisfied

Determine whether measured protein stability index meets or exceeds 3 for FVMNGHSESSGQTHLEGDTVQIIC [E3M]
not satisfied

Determine whether measured protein stability index meets or exceeds 3 for FVQNGHSESSGQTHLEGDTVQIIC [E3Q]
not satisfied

Determine whether measured protein stability index meets or exceeds 3 for FVINGHSESSGQTHLEGDTVQIIC [E3I]
not satisfied

Determine whether measured protein stability index meets or exceeds 3 for FVENGHSESSGQTHLESDTVQIIC [G17S]
not satisfied

Determine whether measured protein stability index meets or exceeds 3 for FVENGWSESSGQTHLEGDTVQIIC [H6W]
not satisfied

Determine whether measured protein stability index meets or exceeds 3 for FVENGHSESSGQTHLEGDHVQIIC [T19H]
satisfied

Determine whether measured protein stability index meets or exceeds 3 for FVENGHSESSGQTHLEGDLVQIIC [T19L]
not satisfied

Determine whether measured protein stability index meets or exceeds 3 for FVENGHSESSGQEHLEGDTVQIIC [T13E]
satisfied

Determine whether measured protein stability index meets or exceeds 3 for FVENGHSESSGQTHQEGDTVQIIC [L15Q]
satisfied

Determine whether measured protein stability index meets or exceeds 3 for FVENGHSESSGQTHLEGDTVQISC [I23S]
satisfied

Determine whether measured protein stability index meets or exceeds 3 for FVENGHSESSGQVHLEGDTVQIIC [T13V]
not satisfied

Determine whether measured protein stability index meets or exceeds 3 for FVENGHSESSGQTHLEGDTVQYIC [I22Y]
satisfied

Determine whether measured protein stability index meets or exceeds 3 for FVYNGHSESSGQTHLEGDTVQIIC [E3Y]
not satisfied

Determine whether measured protein stability index meets or exceeds 3 for TVENGHSESSGQTHLEGDTVQIIC [F1T]
satisfied

Determine whether measured protein stability index meets or exceeds 3 for LVENGHSESSGQTHLEGDTVQIIC [F1L]
satisfied
